- EXPERIMENTAL_SYSTEM: ULK1 (human)
- PROCEDURE_SUMMARY: radiometric filter-binding kinase assay
- SETTINGS: compound 10.0 µM
ASSAY_READOUT: residual activity (%)

Sample answers from the record:
{"COMPOUND": "Cc1ccc(-c2ccc3c(ccc4sc5c(c43)NC[C@@H](C)NC5=O)n2)cn1", "residual activity, %": 75}
{"COMPOUND": "Nc1cccc2c1CN(C1CCC(=O)NC1=O)C2=O (stereo not drawn)", "residual activity, %": 103}
{"COMPOUND": "CCn1c(-c2nonc2N)nc2cncc(CNC3CCNCC3)c21", "residual activity, %": 43}
{"COMPOUND": "COC(=O)/C=C/C(=O)OC", "residual activity, %": 97}
{"COMPOUND": "COc1cc(C(=O)N2CCOCC2)c(F)cc1Nc1ncc(C(F)(F)F)c(NC2CC2)n1", "residual activity, %": 56}

I. NCC(=O)Nc1ccc(-n2nc(C(F)(F)F)cc2-c2ccc3c(ccc4ccccc43)c2)cc1
II. CCNc1nc(Nc2cc(F)c(C(=O)N3CCOCC3)cc2OC)ncc1C(F)(F)F
QUERY: I need your help: which of the pair I , II has higher residual activity? Your answer should be the label of the entry you select.
RESULT: I
(I: 97%, II: 47%)

----------
- EXPERIMENTAL_SYSTEM: UniProt P12931
- Sequence (P12931 whole entry, looked up): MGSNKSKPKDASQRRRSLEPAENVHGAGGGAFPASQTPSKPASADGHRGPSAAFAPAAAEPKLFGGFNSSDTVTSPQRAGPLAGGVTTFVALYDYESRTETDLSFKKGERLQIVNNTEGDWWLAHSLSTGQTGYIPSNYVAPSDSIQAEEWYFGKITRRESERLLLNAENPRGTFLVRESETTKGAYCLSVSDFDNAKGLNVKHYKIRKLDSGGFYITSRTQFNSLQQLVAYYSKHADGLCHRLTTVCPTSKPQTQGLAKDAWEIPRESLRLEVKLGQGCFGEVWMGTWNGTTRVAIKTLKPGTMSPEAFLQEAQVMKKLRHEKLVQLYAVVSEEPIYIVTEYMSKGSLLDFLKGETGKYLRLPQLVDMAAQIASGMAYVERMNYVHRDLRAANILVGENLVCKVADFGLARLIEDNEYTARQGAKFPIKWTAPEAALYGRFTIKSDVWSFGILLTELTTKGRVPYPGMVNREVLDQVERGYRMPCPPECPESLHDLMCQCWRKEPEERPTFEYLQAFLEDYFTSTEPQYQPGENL
- PROCEDURE_SUMMARY: radiometric filter-binding kinase assay
- SETTINGS: compound 0.1 µM
ASSAY_READOUT: residual activity (%)

{"MOLECULE": "Cn1c(=O)c2c(ncn2C)n(C)c1=O", "EXPERIMENTAL_SYSTEM": "UniProt P12931", "residual activity (%)": 96}
{"MOLECULE": "COc1ccc(-n2ncc3cnc(Nc4cc(OC)c(OC)c(OCCCN5CCN(C)CC5)c4)nc32)cc1", "EXPERIMENTAL_SYSTEM": "UniProt P12931", "residual activity (%)": 7}
{"MOLECULE": "C/C(=C1/C(=O)Nc2ccc(NC(N)=O)cc21)c1ccc[nH]1", "EXPERIMENTAL_SYSTEM": "UniProt P12931", "residual activity (%)": 71}

A. COc1ccc2c(c1)c1c3c(c4c5ccccc5n(C)c4c1n2CC(O)CN(C)C)C(=O)NC3=O (stereo not drawn)
B. Cc1ccc(Sc2cnc(Nc3cccc(Br)n3)s2)cc1C(=O)N1CCN(C(=O)CN)CC1
QUERY: Compare A and B by numeric residual activity and name the larger one. // output: label of the selected item
RESULT: A
(A: 104%, B: 22%)

----------
- EXPERIMENTAL_SYSTEM: UniProt P05129
- PROCEDURE_SUMMARY: radiometric filter-binding kinase assay
- SETTINGS: compound 0.1 µM
ASSAY_READOUT: residual activity (%)

Here is how some compounds turned out for residual activity.
{"COMPOUND": "CCCCCc1ccc(/C=C/[C@H](O)[C@@H](CO)NC)cc1", "OUTPUT_UNIT": "%", "residual activity": 101}
{"COMPOUND": "O=C(Nc1nc2cc(C(F)(F)F)cc(NC3CC3)n2n1)c1cccnc1", "OUTPUT_UNIT": "%", "residual activity": 115}
{"COMPOUND": "O=C(NCCCNc1nc(Nc2cccc(CN3CCOCC3)c2)ncc1C1CC1)C1CCC1", "OUTPUT_UNIT": "%", "residual activity": 88}
{"COMPOUND": "COc1ccc(-n2ncc3cnc(Nc4cc(OC)c(OC)c(OCCCN5CCN(C)CC5)c4)nc32)cc1", "OUTPUT_UNIT": "%", "residual activity": 117}
{"COMPOUND": "CCn1c(-c2nonc2N)nc2cncc(CNC3CCNCC3)c21", "OUTPUT_UNIT": "%", "residual activity": 96}
{"COMPOUND": "CN(C)C/C=C/C(=O)Nc1cccc(C(=O)Nc2ccc(Nc3nccc(-c4cccnc4)n3)cc2)c1", "OUTPUT_UNIT": "%", "residual activity": 96}

I. CC1=C(CO)C(=O)O[C@@H]([C@@H](C)[C@H]2CC[C@H]3[C@@H]4C[C@H]5O[C@]56[C@@H](O)C=CC(=O)[C@]6(C)C4CC[C@]23C)C1 (stereo partly drawn)
II. CNC(=O)C1[C@H]2O[C@@](C)([C@@H]1N)n1c3ccccc3c3c4c(c5c6ccccc6n2c5c31)C(=O)NC4 (stereo partly drawn)
QUERY: Consider I and II . Which of these has its residual activity at a higher number? Identify your selection by its label.
RESULT: I
(I: 119%, II: 51%)

Just for reference, the kinase profiling compilation of Christmann-Franck et al. (2016) is where these values come from.
